Tested on: HT-29 cells
Test: WST-1 cytotoxicity assay, HT-29 cells
Assay type: cell-based, human
Conditions: Homo sapiens, HT-29, 24 h, WST-1 assay, 24 h treatment
Method: HeLa, HT-29, MCF-7 and KMST-6 cells were prepared from our laboratory stocks. […] The cells were harvested using trypsin (Lonza Group Ltd.), and viable cell concentrations were determined using the Countess® Automated Cell Counter (Invitrogen, CA, USA). […] Cell viability was measured using the WST-1 assay (Roche Diagnostics GmbH, Mannheim, Germany) as previously described by Ngamwongsatit et al., 2008. […] Triplicate experiments were conducted and the results expressed as mean ± SEM.
property: pIC50
Entry type: numeric. Quantity: pIC50, the -log10 of concentration in molar units.

q: Give the value of pIC50 reported for the following: "C[C@H]1[C@H](C)CC[C@]2(C(=O)O)CC[C@]3(C)C(=CC[C@@H]4[C@@]5(C)CC[C@H](O)C(C)(C)[C@@H]5CC[C@]43C)[C@H]12"
a: 5.00

q: Give the value of pIC50 reported for the following: CC1(C)CC[C@]2(C)CC=C3[C@]4(C)CCC(C(C)(C)CO)[C@](C)(CC(=O)O)C4CC[C@@]3(C)C2C1 (stereo partly drawn)
a: 3.77

* * *

System: HT-29 cells
Experiment: WST-1 cytotoxicity assay, HT-29 cells
Assay type: cell-based, human
Settings: WST-1 assay, 24 h treatment
property: pIC50
Entry type: numeric. Quantity: pIC50, the -log10 of concentration in molar units.

q: Enter pIC50 (test system HT-29 cells) for CC1CCC2(C(=O)O)CCC3(COC(=O)C=Cc4ccc(O)cc4)C(=CCC4C5(C)CCC(O)C(C)(C)C5CCC43C)C2C1C (centres unmarked) [Compound 2, 27-p-E-coumaroloxyursolic acid]
a: 4.00

q: Enter pIC50 (test system HT-29 cells) for CC1CCC2(C(=O)O)CCC3(COC(=O)C=Cc4ccc(O)cc4)C(=CCC4C5(C)CCC(O)C(C)(C)C5CCC43C)C2C1C (centres unmarked) [Compound 3, 27-p-Z-coumaroyloxyursolic acid]
a: 3.64
